Each entry below lists one item and its recorded pIC50 value.
# System: Capan-2;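 further: Capan-2 cell growth inhibition, read out with a viability assay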
# PROTOCOL NOTES: cells
# Type: functional, cell-based
# TEST SETTINGS: Homo sapiens
# Description: SANGER: Inhibition of human Capan-2 cell growth in a cell viability assay.
pIC50: −log10 of the molar value.

# count of solved cases: 3
SMILES REPRESENTATION | pIC50
CC1(C)CCC(c2ccc(Cl)cc2)=C(CN2CCN(c3ccc(C(=O)NS(=O)(=O)c4ccc(N[C@H](CCN5CCOCC5)CSc5ccccc5)c(S(=O)(=O)C(F)(F)F)c4)cc3)CC2)C1 | < 5.70
COC(=O)[C@H](CCSC)NC(=O)c1ccc(NC[C@@H](N)CS)cc1-c1ccccc1 | < 5.99
OC[C@H](Cc1ccccc1)Nc1nc(Oc2ccc3c(c2)CCC3)nc2c1ncn2Cc1ccc(-c2ccccc2)cc1 | < 4.99

// pIC50 lookup, key: CN(C)CCOc1ccc(-c2nc(-c3ccncc3)c(-c3ccc4c(c3)CC/C4=N\O)[nH]2)cc1
< 5.30

Look up pIC50 for this compound: CC1=C(/C=C/C(C)=C/C=C/C(C)=C/C(=O)O)C(C)(C)CCC1
< 5.00

Returns the measured pIC50 for the input compound. Input: NC1(c2ccc(-c3nc4ccn5c(=O)[nH]nc5c4cc3-c3ccccc3)cc2)CCC1
< 5.40

These measurements were taken from ChEMBL document CHEMBL1201861.
